- tgt: HIS-PDZ2 protein (PSD-95 PDZ2, residues 155-249, with tag …) (human, UniProt P78352 155-249)
- experiment_notes: FP competition, fluorescent NR2B probe
pKi: −log10 of the molar value. Square brackets hold non-standard residues; d marks the D form. Ends that are not written are not given here. PEG8‑diacid = PEG8-diacid linker: 4,7,10,13,16,19,22,25,28-nonaoxahentriacontane-1,31-dioic acid; PEG4‑diacid = 4,7,10,13,16-pentaoxanonadecane-1,19-dioic acid; NMeA = CN[C@@H](C)C(=O)O
As shown below, each of these binders has a reported pKi value.
attribute_measured: pKi

[
  {
    "binder": "{PEG1‑diacid}-IESDV (also: dimer: two peptides N-terminally joined via PEG1-diacid, Dimeric ligand) [Compound 80 (IESDV dimerized with PEG1-diacid)]",
    "reported_result": 5.33
  },
  {
    "binder": "{PEG8‑diacid}-IESDV (also: dimer: two peptides N-terminally joined via PEG8-diacid, Dimeric ligand) [(IESDV)2PEG8 (76)]",
    "reported_result": 5.59
  },
  {
    "binder": "{PEG2‑diacid}-IESDV (also: dimer: two peptides N-terminally joined via PEG2-diacid, Dimeric ligand) [Compound 79 (IESDV dimerized with PEG2-diacid)]",
    "reported_result": 5.33
  },
  {
    "binder": "IETAV (also: dimer: two peptides joined at N-terminal amines by amide bonds through a PEG4-diacid linker, Dimeric ligand) [(IETAV)2PEG4 (83)]",
    "reported_result": 5.96
  },
  {
    "binder": "{PEG0‑diacid}-IESDV (also: dimer: two peptides N-terminally joined via PEG0-diacid, Dimeric ligand) [Compound 81 (IESDV dimerized with PEG0-diacid)]",
    "reported_result": 5.51
  },
  {
    "binder": "IAT[NMeA]V [IATAMeV (89)]",
    "reported_result": 3.98
  },
  {
    "binder": "{PEG12‑diacid}-IESDV (also: dimer: two peptides N-terminally joined via PEG12-diacid, Dimeric ligand) [(IESDV)2PEG12 (74)]",
    "reported_result": 5.51
  },
  {
    "binder": "IESDV (also called pentapeptide (7)) [IESDV (7)]",
    "reported_result": 5.51
  },
  {
    "binder": "{PEG4‑diacid}-IAT[NMeA]V-OH (also: dimer: two peptides N-terminally joined via PEG4-diacid, Dimeric ligand) [(IATAMeV)2PEG4 (90)]",
    "reported_result": 3.99
  },
  {
    "binder": "ESDV (also: dimer: two peptides joined at N-terminal amines by amide bonds through a PEG8-diacid linker, Dimeric ligand) [Compound 85 (ESDV dimerized with PEG8)]",
    "reported_result": 4.72
  },
  {
    "binder": "{PEG4‑diacid}-IESDV (also: dimer: two peptides N-terminally joined via PEG4-diacid, Dimeric ligand) [(IESDV)2PEG4 (78)]",
    "reported_result": 5.57
  }
]

Data origin, for the record: patent US20160176924A1
